biological target: UniProtKB Q86X55; assay: Activation of recombinant CARM1 using PABP1 as substrate and [3H]-SAM at 50 uM after 90 mins by scintillation counting
Sequence (Q86X55 whole entry): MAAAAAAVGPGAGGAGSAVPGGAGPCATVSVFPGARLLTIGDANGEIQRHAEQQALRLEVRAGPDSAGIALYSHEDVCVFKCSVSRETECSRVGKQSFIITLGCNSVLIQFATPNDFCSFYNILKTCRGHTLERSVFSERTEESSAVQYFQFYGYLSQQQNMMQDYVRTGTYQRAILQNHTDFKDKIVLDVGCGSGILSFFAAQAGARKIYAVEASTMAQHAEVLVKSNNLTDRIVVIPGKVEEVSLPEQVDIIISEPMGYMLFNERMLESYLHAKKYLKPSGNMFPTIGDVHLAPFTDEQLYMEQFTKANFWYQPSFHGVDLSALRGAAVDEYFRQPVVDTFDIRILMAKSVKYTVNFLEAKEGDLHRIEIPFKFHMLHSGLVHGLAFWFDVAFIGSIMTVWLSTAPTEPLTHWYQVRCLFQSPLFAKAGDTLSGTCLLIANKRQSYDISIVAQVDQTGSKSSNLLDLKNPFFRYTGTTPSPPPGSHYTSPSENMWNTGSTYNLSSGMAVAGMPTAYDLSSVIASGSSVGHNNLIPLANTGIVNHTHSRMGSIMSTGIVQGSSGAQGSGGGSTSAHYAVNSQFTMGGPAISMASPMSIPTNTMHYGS
In this section, each of the compounds is paired with its reported Activity.
Response body: numeric value in %, unit text excluded.

// solved cases for Activity follow
* COC(=O)c1c[nH]c2ccc(NC(=O)CNC(=O)Nc3ccc([N+](=O)[O-])cc3)cc12 | 115
* N#Cc1ccc(NC(=O)NCC(=O)Nc2ccc3[nH]c(C(=O)O)cc3c2)cc1 | 81.2

Please look at COC(=O)c1c[nH]c2ccc(NC(=O)CNC(=O)Nc3ccc(C#N)cc3)cc12 and tell me its recorded Activity on UniProtKB Q86X55.
38.8

GET Activity | system: UniProtKB Q86X55 | item: COC(=O)c1c[nH]c2ccc(NC(=O)CNC(=O)Nc3ccc(OC)cc3)cc12
28.2

Write down the reported Activity (system: UniProtKB Q86X55) of Cc1ccc(NC(=O)NCC(=O)Nc2ccc3[nH]c(C(=O)O)cc3c2)cc1
149

Provide Activity, recorded with UniProtKB Q86X55, of O=C(CNC(=O)Nc1ccc([N+](=O)[O-])cc1)Nc1ccc2[nH]c(C(=O)O)cc2c1
85.3

Write Activity of CCOC(=O)c1cc2cc(NC(=O)CNC(=O)Nc3ccc([N+](=O)[O-])cc3)ccc2[nH]1 ; system used: UniProtKB Q86X55
299

Give UniProtKB Q86X55 Activity for the following compound: CCOC(=O)c1cc2cc(NC(=O)CNC(=O)Nc3ccccc3)ccc2[nH]1
10.5

Output reported Activity of the compound CCOC(=O)c1cc2cc(NC(=O)CNC(=O)Nc3ccc(C#N)cc3)ccc2[nH]1 on UniProtKB Q86X55.
358
